Below, each entry is listed with its recorded %Inh.
# System: STK36
# RUN_PARAMETERS: concentration: 1 μM, replicates: in singlicate; n = 1;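 also: KINOMEscan kinase panel screen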
Numeric answer only, unit % assumed.

Example compounds with recorded %Inh:
| COMPOUND | TESTED_TARGET | %Inh [%] |
| --- | --- | --- |
| c1ccc(Oc2ccc(Nc3ccnc4cc(-c5ccc(CNCCN6CCOCC6)o5)ccc34)cc2)nc1 | STK36 | 0 |
| CC(=O)N1CCN(c2ccc(Nc3nccc(-c4sc(C(C)C)nc4-c4cccc(NS(=O)(=O)c5cccc(Cl)c5)c4)n3)cn2)CC1 | STK36 | 99.8 |
| Cl.Cl.NCC(NCc1ccc(-c2ccnc3[nH]ccc23)s1)c1ccccc1 (centres unmarked) | STK36 | 0 |
| CCS(=O)(=O)c1ccc(OC)c(Nc2nccc(-c3c(-c4cccc(NC(=O)c5c(F)cccc5F)c4)nn4ncccc34)n2)c1 | STK36 | 99.7 |

Field %Inh (entry O=C(Nc1ccccc1F)NC1CCN(c2ccnc(Nc3ccc(F)cc3)n2)CC1 ) reads 0

Value of measured %Inh for the entry CN(C)Cc1ccc(-c2ccc3c(Nc4ccc(Oc5ccccn5)cc4)ccnc3c2)o1 : 0

Field %Inh (entry COc1cc(Nc2ncc3c(C)nc(-c4cc5ccccc5[nH]4)n3n2)cc(OC)c1OC ) reads 6

The compound listed as CCCCc1nn2ncccc2c1-c1ccnc(Nc2ccc(N3CCN(C)CC3)cc2)n1 has a reported %Inh of 91.4

For Cl.c1ccc(-c2ccc3c(Nc4ccc5[nH]ncc5c4)ccnc3c2)nc1 the compound record lists %Inh as 0

Reported %Inh for O=C(O)C(F)(F)F.O=C(O)C(F)(F)F.O=c1[nH]ccc2nc(N[C@@H]3CCCNC3)nc(Nc3ccc(S(=O)(=O)N4CCOCC4)cc3)c12 was 26

For record COc1ccc(-c2coc3ccc(-c4nnc(SCc5ccc(OC)c(C(F)(F)F)c5)o4)cc23)cc1 the listed %Inh is 29

----------
# Test system: CSNK1G2
# RUN_PARAMETERS: concentration: 1 μM, replicates: in singlicate; n = 1
QUANTITY_KIND: %Inh (%)
Numbers only here, please. The scale is %.

A selection of reference data follows.
| COMPOUND | TESTED_TARGET | MEASUREMENT_UNIT | REPORTED_MEASUREMENT |
| --- | --- | --- | --- |
| Cl.Cl.NCC(NCc1ccc(-c2ccnc3[nH]ccc23)s1)c1ccccc1 (stereo not drawn) [GSK1321565] | CSNK1G2 | % | 0 |
| COc1cccc(NC(=O)NC2CCN(c3ccnc(Nc4cc(OC)c(OC)c(OC)c4)n3)C2)c1 (stereo not drawn) [GSK1379763] | CSNK1G2 | % | 0 |
| CC(=O)Nc1nc2cnc(Nc3cc(NC(=O)c4cccc(C5(C#N)CC5)c4Cl)ccc3C)nc2s1 | CSNK1G2 | % | 0 |

Now for another entry.
The value of %Inh measured for the compound CC(=O)N1CCN(c2ccc(Nc3nccc(-c4sc(C(C)C)nc4-c4cccc(NS(=O)(=O)c5cccc(Cl)c5)c4)n3)cn2)CC1 [GSK1660437] turned out to be 0

----------
# System: MAST1
# RUN_PARAMETERS: concentration: 1 μM, replicates: in singlicate; n = 1
# key: entry, value: %Inh
Write it as a number; the unit % goes unstated.

Worked cases, answers included:
| COMPOUND | TESTED_TARGET | QUANTITY_KIND | MEASUREMENT_UNIT | REPORTED_MEASUREMENT |
| --- | --- | --- | --- | --- |
| Cc1cccc(Nc2nc(N[C@H]3CCNC3)ncc2C(N)=O)c1.Cl [GSK2197149] | MAST1 | %Inh | % | 0 |
| COC(=O)Nc1nc2ccc(Oc3ccc(NC(=O)Nc4cc(C(F)(F)F)ccc4F)cc3)cc2n1C.Cl [GW692089] | MAST1 | %Inh | % | 23 |
| Cc1ccc(C(=O)Nc2ccc(Nc3ccnc4cc(-c5nccs5)ccc34)cc2O)cc1.Cl [GW494702] | MAST1 | %Inh | % | 15 |
| COc1cc(Nc2nccc(N3CCC(NC(=O)c4cc5ccccc5s4)C3)n2)cc(OC)c1OC (stereo not drawn) [GSK1379760] | MAST1 | %Inh | % | 1 |
| FC(F)(F)c1ccc(/C=C/c2cncnc2Nc2ccc3[nH]c(Cc4ccccc4)nc3c2)cc1 [GW709199] | MAST1 | %Inh | % | 5 |
| COc1cc(Nc2nccc(-c3c(-c4cccc(NC(=O)c5c(F)cccc5F)c4)nn4ccccc34)n2)cc(OC)c1OC [GSK323521] | MAST1 | %Inh | % | 0 |

Let's switch to this compound now.
Lab note: measured %Inh of Cl.NC(=O)c1cccc(Nc2nccc(Nc3ccc(Oc4c(Cl)cccc4Cl)c(Cl)c3)n2)c1 [GW659009] was 0

----------
# Tested on: LRRK2
# RUN_PARAMETERS: concentration: 1 μM, replicates: in singlicate; n = 1
QUANTITY_KIND: %Inh (%)
Answer format: numeric, % implied, no suffix.

For orientation, consider the following solved cases.
| COMPOUND | REPORTED_MEASUREMENT |
| --- | --- |
| CC(C)(C)c1ccc2nccc(Nc3cccc(O)c3)c2c1 | 36 |
| COc1cc(Nc2nccc(-c3c(-c4cccc(NC(=O)c5c(F)cccc5F)c4)nn4ncccc34)n2)cc(OC)c1OC | 0 |
| CN1CCN(Cc2cccc(-c3ccc4c(Nc5ccc(Oc6ccccc6)cc5)ccnc4c3)c2)CC1 | 0 |
| Cc1occc1-c1ncc(OC[C@@H](N)Cc2c[nH]c3ccccc23)cc1-c1ccc2[nH]nc(C)c2c1.O=C(O)C(F)(F)F | 23 |
| Nc1ncc(-c2cccnc2)c2scc(-c3ccc4c(c3)CCN4C(=O)Cc3ccccc3)c12 | 0 |
| CCn1c(-c2nonc2N)nc2c(C#CC(C)(C)O)ncc(OCCCCN)c21.O=C(O)C(F)(F)F.O=C(O)C(F)(F)F | 45 |
| CCCCc1nn2ncccc2c1-c1ccnc(Nc2ccc(N3CCN(C)CC3)cc2)n1 | 60 |
| c1ccc(Oc2ccc(Nc3ccnc4cc(-c5ccc(CNCCN6CCOCC6)o5)ccc34)cc2)nc1 | 20 |

For Cn1cc(-c2ccc3c(c2)CCN3C(=O)Cc2cccc(Cl)c2)c2c(N)ncnc21 the compound record lists %Inh as 29

According to the records, this compound Cc1cccc(Nc2nc(N[C@H]3CCNC3)ncc2C(N)=O)c1.Cl displays %Inh of 56

Sure, the documented %Inh for O=C(Nc1cccc(-c2nn3ncccc3c2-c2ccnc(Nc3ccccc3)n2)c1)c1c(F)cccc1F is 0

----------
# Tested on: MAPKAPK2
# RUN_PARAMETERS: concentration: 1 μM, replicates: in singlicate; n = 1
QUANTITY_KIND: %Inh

| COMPOUND | %Inh |
| --- | --- |
| CC(=O)Nc1nc2cnc(Nc3cc(NC(=O)c4cccc(C5(C#N)CC5)c4Cl)ccc3C)nc2s1 | 0% |
| COc1cc(Nc2ncc3c(C)nc(-c4cc5ccccc5[nH]4)n3n2)cc(OC)c1OC | 0% |
| NCCCC(NC(=O)c1cc(Br)c(-c2ccnc3[nH]ccc23)s1)c1ccccc1.O=C(O)C(F)(F)F.O=C(O)C(F)(F)F (stereo not shown) | 0% |
| Cl.NC(=O)c1cccc(Nc2nccc(Nc3ccc(Oc4c(Cl)cccc4Cl)c(Cl)c3)n2)c1 | 0% |
| COc1cc(Nc2nccc(N3CCC(NC(=O)Nc4cccc(C(C)=O)c4)C3)n2)cc(OC)c1OC (stereo not shown) | 0% |
| Cc1cccc(NC(=O)Nc2ccc(Oc3ncnc4ccn(C)c34)cc2)c1 | 0% |
| CSc1cccc2c(-c3ccncn3)c(-c3ccc(F)cc3)nn12 | 67% |
| Cc1ccc(C(=O)Nc2ccc(Nc3ccnc4cc(-c5nccs5)ccc34)cc2O)cc1.Cl | 17% |

Memo: COC(=O)Nc1nc2ccc(Oc3ccc(NC(=O)Nc4cc(C(F)(F)F)ccc4F)cc3)cc2n1C.Cl , reported %Inh: 6%

The value of %Inh measured for the compound COc1cc(Nc2nccc(-c3c(-c4cccc(NC(=O)c5c(F)cccc5F)c4)nn4ncccc34)n2)cc(OC)c1OC turned out to be 7%

Value of %Inh reported for the compound c1ccc(Oc2ccc(Nc3ccnc4cc(-c5ccc(CNCCN6CCOCC6)o5)ccc34)cc2)nc1 is 0%

Entry O=C(O)C(F)(F)F.O=C(O)C(F)(F)F.O=c1[nH]ccc2nc(N[C@@H]3CCCNC3)nc(Nc3ccc(S(=O)(=O)N4CCOCC4)cc3)c12 ; %Inh = 65%

Reported %Inh of O=c1[nH]cc(-c2ccc(N3CCOCC3)cc2)c2sc(-c3cn[nH]c3)cc12 : 0%

Please fill in: %Inh reported for Cc1ccc(C)c(NC(=O)NC2CCN(c3ccnc(Nc4ccc(F)cc4)n3)C2)c1 (stereo not shown) = 23%

According to the records, this compound COc1cc2c(cc1OCCN1CCNCC1)ncc1c3ccc(C#N)cc3[nH]c21 displays %Inh of 0%

Kindly note the recorded %Inh for Cn1cc(-c2ccc3c(c2)CCN3C(=O)Cc2cccc(Cl)c2)c2c(N)ncnc21 , which is 19%

Hey, just so you know, these numbers are from paper PMC5540273.
